Test system: NCI/ADR-RES ovarian
ASSAY_METHOD_TEXT: NCI tumour cell line growth inhibition, 48 h
QUANTITY_NAME: TGI

{"COMPOUND": "COc1cc(OC)c(C/C=C/c2ccccc2)cc1O", "TESTED_SYSTEM": "NCI/ADR-RES ovarian", "QUANTITY_NAME": "TGI", "RESULT": "31.4 µM"}
{"COMPOUND": "C=C(C(N)=O)c1ccc([N+](=O)[O-])o1", "TESTED_SYSTEM": "NCI/ADR-RES ovarian", "QUANTITY_NAME": "TGI", "RESULT": "> 100 µM"}
{"COMPOUND": "CCCC(=O)NC(Nc1ccc(S(=O)(=O)Nc2cc(C)on2)cc1)(C(=O)OCC)C(F)(F)F (stereo unspecified)", "TESTED_SYSTEM": "NCI/ADR-RES ovarian", "QUANTITY_NAME": "TGI", "RESULT": "> 100 µM"}
{"COMPOUND": "Cc1ccccc1OCC(O)CN1CCN(c2ccc(Cl)cc2)CC1 (stereo unspecified)", "TESTED_SYSTEM": "NCI/ADR-RES ovarian", "QUANTITY_NAME": "TGI", "RESULT": "29.5 µM"}
{"COMPOUND": "N#CC1(C#N)NC(c2cccs2)C(C#N)(C#N)NC1c1cccs1 (stereo unspecified)", "TESTED_SYSTEM": "NCI/ADR-RES ovarian", "QUANTITY_NAME": "TGI", "RESULT": "> 100 µM"}
{"COMPOUND": "CCCCOC(=O)N1CCN(/[N+]([O-])=N/Oc2ccc([N+](=O)[O-])cc2[N+](=O)[O-])CC1", "TESTED_SYSTEM": "NCI/ADR-RES ovarian", "QUANTITY_NAME": "TGI", "RESULT": "> 100 µM"}
{"COMPOUND": "Cc1ccc(OCC2OC(n3cnc4nc(N)nc(Cl)c43)CC2Oc2ccc(C)cc2)cc1 (stereo unspecified)", "TESTED_SYSTEM": "NCI/ADR-RES ovarian", "QUANTITY_NAME": "TGI", "RESULT": "47.2 µM"}
{"COMPOUND": "NCCCC[C@@H]1NC(=O)[C@H]2CCCN2C(=O)[C@H](Cc2ccccc2)CNC(=O)[C@H](Cc2ccccc2)NC1=O", "TESTED_SYSTEM": "NCI/ADR-RES ovarian", "QUANTITY_NAME": "TGI", "RESULT": "> 37.5 µM"}
{"COMPOUND": "COc1ccc2c3c1OC1C(=O)C=CC4(CC2)N(C)CCC314 (stereo unspecified)", "TESTED_SYSTEM": "NCI/ADR-RES ovarian", "QUANTITY_NAME": "TGI", "RESULT": "> 100 µM"}
{"COMPOUND": "O=S(=O)(c1ccc(NC2=NC(c3ccc(O)cc3)(c3ccccc3O)c3ccccc32)cc1)c1ccc(NC2=NC(c3ccc(O)cc3)(c3ccccc3O)c3ccccc32)cc1 (stereo unspecified)", "TESTED_SYSTEM": "NCI/ADR-RES ovarian", "QUANTITY_NAME": "TGI", "RESULT": "> 100 µM"}
{"COMPOUND": "O=C1Nc2ccc(Br)cc2C1=Nc1cccnc1", "TESTED_SYSTEM": "NCI/ADR-RES ovarian", "QUANTITY_NAME": "TGI", "RESULT": "87.1 µM"}
{"COMPOUND": "COc1ccc2c(CN3CCCC[C@H]3C(=O)O)cc3cc4c(cc3c2c1)OCO4", "TESTED_SYSTEM": "NCI/ADR-RES ovarian", "QUANTITY_NAME": "TGI", "RESULT": "65.7 µM"}
{"COMPOUND": "ClCCCc1ccccc1C1=NCCc2ccccc21", "TESTED_SYSTEM": "NCI/ADR-RES ovarian", "QUANTITY_NAME": "TGI", "RESULT": "> 100 µM"}
{"COMPOUND": "CC(=O)OCC1OC(SC2=N/C(=C\\c3ccc(Br)s3)C(=O)N2CN2CCOCC2)C(OC(C)=O)C(OC(C)=O)C1OC(C)=O (stereo unspecified)", "TESTED_SYSTEM": "NCI/ADR-RES ovarian", "QUANTITY_NAME": "TGI", "RESULT": "44 µM"}
{"COMPOUND": "Nc1ccc(S(=O)(=O)c2ccc(NCN3C(=O)NC(=O)C(=O)C3=O)cc2)cc1", "TESTED_SYSTEM": "NCI/ADR-RES ovarian", "QUANTITY_NAME": "TGI", "RESULT": "> 100 µM"}
{"COMPOUND": "Cc1cc2c(C(C)C)c(O)c(O)cc2c(O)c1-c1c(C)cc2c(C(C)C)c(O)c(O)cc2c1O", "TESTED_SYSTEM": "NCI/ADR-RES ovarian", "QUANTITY_NAME": "TGI", "RESULT": "48.9 µM"}
{"COMPOUND": "CC(C)CNc1nc2ncnc(N)c2[nH]1", "TESTED_SYSTEM": "NCI/ADR-RES ovarian", "QUANTITY_NAME": "TGI", "RESULT": "> 100 µM"}
{"COMPOUND": "O=C1c2cc3c(cc2[C@@H]2[C@H]1c1ccc([N+](=O)[O-])cc1C(=O)N2CCCBr)OCO3", "TESTED_SYSTEM": "NCI/ADR-RES ovarian", "QUANTITY_NAME": "TGI", "RESULT": "0.0177 µM"}
{"COMPOUND": "Cc1ccc(OCC2OC(n3cnc4c(Cl)nc(N)nc43)CC2Oc2ccc(C)cc2)cc1 (stereo unspecified)", "TESTED_SYSTEM": "NCI/ADR-RES ovarian", "QUANTITY_NAME": "TGI", "RESULT": "> 75.5 µM"}
{"COMPOUND": "O=S(Nc1ccccc1)c1ccc(N2CCOCC2)cc1 (stereo unspecified)", "TESTED_SYSTEM": "NCI/ADR-RES ovarian", "QUANTITY_NAME": "TGI", "RESULT": "> 100 µM"}
{"COMPOUND": "Cc1ccc([S@](=O)c2occc2C=O)cc1", "TESTED_SYSTEM": "NCI/ADR-RES ovarian", "QUANTITY_NAME": "TGI", "RESULT": "> 61 µM"}
